B1: scFv; the commonest letter at each place (parent)
chain 1: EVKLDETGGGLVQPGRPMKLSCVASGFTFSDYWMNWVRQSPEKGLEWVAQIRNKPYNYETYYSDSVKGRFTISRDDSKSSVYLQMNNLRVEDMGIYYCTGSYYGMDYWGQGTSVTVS
chain 2: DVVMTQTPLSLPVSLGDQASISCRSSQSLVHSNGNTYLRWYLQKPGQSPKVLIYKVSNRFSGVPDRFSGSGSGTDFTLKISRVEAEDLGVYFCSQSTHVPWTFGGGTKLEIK

Variants of: B1
assay-details: Kd (Tite-Seq)
test-conditions: with fluorescein; format: scFv 4-4-20, heavy + light
pKd: −log10 of the molar value.
value-kind: pKd

> print(dat)
          mutation.annotation  test.value
 1        chain 1 S101N W108D      ≤ 5.00
 2          chain 1 W33K V37L        6.46
 3        chain 1 Y102V G104K      ≤ 5.00
 4  chain 1 Y103N D106N W108T      ≤ 5.00
 5        chain 1 G100E Y107H      ≤ 5.00
 6  chain 1 Y102F M105C W108T      ≤ 5.00
 7          chain 1 T28A F29K      ≤ 5.00
 8          chain 1 W33E V37L      ≤ 5.00
 9          chain 1 T28V Y32N      ≤ 5.00
10        chain 1 Y103A W108D      ≤ 5.00
11        chain 1 S101D W108A      ≤ 5.00
12  chain 1 Y103M M105H D106Y      ≤ 5.00
13  chain 1 M105Y D106H W108L      ≤ 5.00
14          chain 1 M34Q V37T      ≤ 5.00
15          chain 1 D31L Y32N      ≤ 5.00
16        chain 1 M105S D106S        5.16
17          chain 1 F29T D31P      ≤ 5.00
18          chain 1 D31V M34R        6.71
19               chain 1 M34P      ≤ 5.00
20        chain 1 S101C Y107S      ≤ 5.00
21        chain 1 M105S G109T      ≤ 5.00
22        chain 1 Y102P M105K      ≤ 5.00
23        chain 1 G100D G104A      ≤ 5.00
24          chain 1 D31E Y32P      ≤ 5.00
25          chain 1 F29P Y32P      ≤ 5.00
26          chain 1 Y32T V37A      ≤ 5.00
27          chain 1 F29C V37E        5.16
28          chain 1 T28P D31S        8.94
29          chain 1 T28R V37P      ≤ 5.00
30          chain 1 T28P W36Y        8.37
31          chain 1 F29P W36E      ≤ 5.00
32               chain 1 W33P      ≤ 5.00
33          chain 1 S30I M34P      ≤ 5.00
34        chain 1 S101D Y103A      ≤ 5.00
35          chain 1 Y32R W36V      ≤ 5.00
36          chain 1 M34G N35Q      ≤ 5.00
37        chain 1 M105V W108H      ≤ 5.00
38  chain 1 S101T Y103Q G109I      ≤ 5.00
39          chain 1 T28W N35A      ≤ 5.00
40        chain 1 M105V D106Y      ≤ 5.00
41          chain 1 W33P M34H      ≤ 5.00
42        chain 1 Y102E D106S      ≤ 5.00
43        chain 1 G104E W108G      ≤ 5.00
44          chain 1 D31L N35F      ≤ 5.00
45        chain 1 M105R W108A        5.13
46              chain 1 G109A        7.28
